B1: library; a variant is named by its letters at N, in order (parent)
chain: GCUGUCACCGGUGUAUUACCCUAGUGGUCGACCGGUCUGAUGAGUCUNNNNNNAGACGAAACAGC

Variants of: B1
Method description: normalized RNA/DNA level with ligand (relative to sTRSVctl = 100) (log10 (% of sTRSVctl)); ligand: hypoxanthine (xanthine aptamer); higher = less ribozyme self-cleavage, higher mRNA level
Condition description: ligand concentration (+) RNA-Seq: 5 mM, HEK293T, reporter: mCherry (pCS4076), ligand present: yes
Test readout: normalized RNA/DNA level with ligand (log10)
Answer field: number only, no words.

Consider the worked cases shown below.
Sequence entry | Experimental result
GCUGUCACCGGUGUAUUACCCUAGUGGUCGACCGGUCUGAUGAGUCUCCGUGGAGACGAAACAGC [CCGUGG] | 1.82
GCUGUCACCGGUGUAUUACCCUAGUGGUCGACCGGUCUGAUGAGUCUUACGGGAGACGAAACAGC [UACGGG] | 1.93
GCUGUCACCGGUGUAUUACCCUAGUGGUCGACCGGUCUGAUGAGUCUGAAGACAGACGAAACAGC [GAAGAC] | 1.92
GCUGUCACCGGUGUAUUACCCUAGUGGUCGACCGGUCUGAUGAGUCUGUCCGUAGACGAAACAGC [GUCCGU] | 1.89
GCUGUCACCGGUGUAUUACCCUAGUGGUCGACCGGUCUGAUGAGUCUUUACUAAGACGAAACAGC [UUACUA] | 1.93

IN: Which measured normalized RNA/DNA level with ligand (log10) value corresponds to GCUGUCACCGGUGUAUUACCCUAGUGGUCGACCGGUCUGAUGAGUCUGAAAUGAGACGAAACAGC [GAAAUG] ?
OUT: 1.86

IN: Data request, read-out normalized RNA/DNA level with ligand (log10), for GCUGUCACCGGUGUAUUACCCUAGUGGUCGACCGGUCUGAUGAGUCUCUUUGUAGACGAAACAGC [CUUUGU]
OUT: 1.93

IN: Tell me the measured normalized RNA/DNA level with ligand (log10) of GCUGUCACCGGUGUAUUACCCUAGUGGUCGACCGGUCUGAUGAGUCUGGUUCCAGACGAAACAGC [GGUUCC] , please.
OUT: 1.99

IN: I'd like to know its normalized RNA/DNA level with ligand (log10). The variant in question is GCUGUCACCGGUGUAUUACCCUAGUGGUCGACCGGUCUGAUGAGUCUGUCUAAAGACGAAACAGC [GUCUAA]
OUT: 1.94

IN: Need normalized RNA/DNA level with ligand (log10) of GCUGUCACCGGUGUAUUACCCUAGUGGUCGACCGGUCUGAUGAGUCUGAAAGAAGACGAAACAGC [GAAAGA] , thanks.
OUT: 1.92

IN: Which measured normalized RNA/DNA level with ligand (log10) value corresponds to GCUGUCACCGGUGUAUUACCCUAGUGGUCGACCGGUCUGAUGAGUCUCAUAUAAGACGAAACAGC [CAUAUA] ?
OUT: 1.9
